# assaySystem: influenza A virus (IAV) PA-Nter fragment (amino acids 1-209) (Influenza A virus, UniProt P31343)
resultType: log10 of IC50 (log10 of the value in µM)
Note: values are log10 of IC50 expressed in µM.

Reported log10 of IC50 for O=C(O)c1cn(Cc2ccccc2-c2ccccc2)c2sc(N3CCOCC3)nc2c1=O was -0.11

Reported log10 of IC50 for COc1ccc(CNc2nc3c(=O)c(C(=O)O)cn(Cc4ccccc4-c4cc(C)ccc4C)c3s2)cc1 was 0.32

* * *

Known inhibition at 1 µM of a selection of compounds
# assaySystem: influenza A virus (IAV) PA-Nter fragment (amino acids 1-209) (Influenza A virus)
# Construct: PA-Nter fragment (amino acids 1-209); made in house
# assayOverview: FRET endonuclease activity assay
# Assay type: biochemical
# conditionDetails: @ 1 μM; read-out: FRET % reduction of v0
Use % as the unit, but write only the number.

Some solved cases for reference:
1) CCOC(=O)c1ccc(S(=O)(=O)Nc2nc3c(=O)c(C(=O)OCC)cn(Cc4ccccc4-c4ccccc4)c3s2)cc1: 8.1
2) COc1ccc(S(=O)(=O)Nc2nc3c(=O)c(C(=O)O)cn(C(c4ccccc4)c4ccccc4)c3s2)cc1: 7.8
3) CCOC(=O)c1cn(C(c2ccccc2)c2ccccc2)c2sc(NS(=O)(=O)c3ccc(OC)cc3)nc2c1=O: 25
4) CCOC(=O)c1cn(Cc2ccccc2-c2ccccc2)c2sc(NS(=O)(=O)c3ccc(Cl)cc3)nc2c1=O: 6.2
5) CCOC(=O)c1cn(C(c2ccccc2)c2ccccc2)c2sc(NS(=O)(=O)c3ccc(Cl)cc3F)nc2c1=O: 5.6

With those in mind, consider the next compound.
Reported inhibition at 1 µM for O=C(O)c1cn(C(c2ccccc2)c2ccccc2)c2sc(NS(=O)(=O)c3ccc(Cl)cc3F)nc2c1=O was 2

* * *

Known melting point of a selection of compounds

Some solved cases for reference:
1. CCOC(=O)c1c[nH]c2cc(C(=O)NCCc3ccc(Cl)cc3)nn2c1=O: > 300 °C
2. CCOC(=O)c1c[nH]c2nc(Nc3ccc(NC(C)=O)cc3)nn2c1=O: > 330 °C
3. CCOC(=O)c1cn(Cc2ccccc2)c2cc(C3CC3)nn2c1=O: 160 to 165 °C
4. O=C(O)Cc1c[nH]c2cc(C(F)(F)F)nn2c1=O: 320 to 324 °C
5. O=C(O)Cc1c[nH]c2cc(C3CC3)nn2c1=O: > 300 °C
6. CCOC(=O)c1cn(CCc2ccccc2)c2cc(C3CC3)nn2c1=O: 155 to 160 °C
7. O=C(NCCc1ccc(Cl)cc1)c1cc2[nH]cc(C(=O)O)c(=O)n2n1: > 300 °C
8. CC(C)c1cc2n(Cc3ccccc3)cc(C(=O)O)c(=O)n2n1: 180 to 185 °C
9. O=C(O)c1c[nH]c2cc(C(F)(F)F)nn2c1=O: > 340 °C
10. CCOC(=O)c1cn(CCc2cccc(F)c2)c2cc(C3CC3)nn2c1=O: 160 to 165 °C

Reported melting point for CCOC(=O)c1c[nH]c2cc(C(=O)NCc3ccccc3)nn2c1=O was 290 to 292 °C

Reported melting point for CC(C)c1cc2n(CCc3ccccc3)cc(C(=O)O)c(=O)n2n1 was 220 to 225 °C

Reported melting point for CCOC(=O)Cc1c[nH]c2cc(-c3ccccc3)nn2c1=O was 245 to 250 °C

Reported melting point for CCOC(=O)Cc1cn(C)c2cc(C3CC3)nn2c1=O was 147 to 150 °C

Reported melting point for CCOC(=O)Cc1c[nH]c2nc(Nc3ccccc3)nn2c1=O was 255 to 257 °C

Reported melting point for CCOC(=O)c1c[nH]c2nc(Nc3ccc(C)c(Cl)c3)nn2c1=O was > 340 °C

Reported melting point for O=C(O)c1cn(CCc2cccc(Cl)c2)c2cc(C3CC3)nn2c1=O was 230 to 235 °C

Reported melting point for O=C(O)c1c[nH]c2nc(NCc3ccccc3)nn2c1=O was 240 to 245 °C
